Origin of measurements: patent US6720343B2

Assay read-out IC50; system under study: MMP-9 (Homo sapiens).
Sequence (P14780 94-707): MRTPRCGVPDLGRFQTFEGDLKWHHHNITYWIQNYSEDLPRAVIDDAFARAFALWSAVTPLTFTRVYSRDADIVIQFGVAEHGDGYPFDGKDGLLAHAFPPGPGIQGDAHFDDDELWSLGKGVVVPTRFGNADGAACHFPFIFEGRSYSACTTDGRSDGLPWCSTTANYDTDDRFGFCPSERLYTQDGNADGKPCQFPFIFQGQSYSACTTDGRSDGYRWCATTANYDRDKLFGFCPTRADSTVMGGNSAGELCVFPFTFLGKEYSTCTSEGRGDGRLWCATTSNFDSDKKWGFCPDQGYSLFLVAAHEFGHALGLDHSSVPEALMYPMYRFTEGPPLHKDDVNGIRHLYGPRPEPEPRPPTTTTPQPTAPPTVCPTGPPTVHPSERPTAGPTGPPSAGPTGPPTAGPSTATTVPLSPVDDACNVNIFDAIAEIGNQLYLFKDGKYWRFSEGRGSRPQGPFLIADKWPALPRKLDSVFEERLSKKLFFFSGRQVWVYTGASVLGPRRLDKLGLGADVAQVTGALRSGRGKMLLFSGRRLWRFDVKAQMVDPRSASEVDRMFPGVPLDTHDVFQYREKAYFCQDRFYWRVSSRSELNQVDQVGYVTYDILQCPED
Just the number in nM, nothing appended.

What the record says about Cc1ccc(-c2noc(-c3ccc(S(=O)(=O)N[C@H](Cc4ccccc4)C(=O)O)cc3)n2)cc1 : IC50 is 384

What the record says about Cc1ccc(-c2noc(-c3ccc(S(=O)(=O)N[C@@H](Cc4ccccc4)C(=O)O)cc3)n2)cc1 : IC50 is 479

What the record says about C[C@@H](NS(=O)(=O)c1ccc(-c2nc(-c3ccc(Cl)cc3)no2)cc1)C(=O)O : IC50 is 190

What the record says about CCc1ccc(-c2noc(-c3ccc(S(=O)(=O)N[C@H](Cc4ccccc4)C(=O)O)cc3)n2)cc1 : IC50 is 78

What the record says about Cc1ccc(-c2noc(-c3ccc(S(=O)(=O)N[C@@H](C(=O)O)C(C)C)cc3)n2)s1 : IC50 is 47
